Tested on: Human Cav2.2 channels (Homo sapiens, UniProt Q00975)
Sequence (Q00975 whole entry): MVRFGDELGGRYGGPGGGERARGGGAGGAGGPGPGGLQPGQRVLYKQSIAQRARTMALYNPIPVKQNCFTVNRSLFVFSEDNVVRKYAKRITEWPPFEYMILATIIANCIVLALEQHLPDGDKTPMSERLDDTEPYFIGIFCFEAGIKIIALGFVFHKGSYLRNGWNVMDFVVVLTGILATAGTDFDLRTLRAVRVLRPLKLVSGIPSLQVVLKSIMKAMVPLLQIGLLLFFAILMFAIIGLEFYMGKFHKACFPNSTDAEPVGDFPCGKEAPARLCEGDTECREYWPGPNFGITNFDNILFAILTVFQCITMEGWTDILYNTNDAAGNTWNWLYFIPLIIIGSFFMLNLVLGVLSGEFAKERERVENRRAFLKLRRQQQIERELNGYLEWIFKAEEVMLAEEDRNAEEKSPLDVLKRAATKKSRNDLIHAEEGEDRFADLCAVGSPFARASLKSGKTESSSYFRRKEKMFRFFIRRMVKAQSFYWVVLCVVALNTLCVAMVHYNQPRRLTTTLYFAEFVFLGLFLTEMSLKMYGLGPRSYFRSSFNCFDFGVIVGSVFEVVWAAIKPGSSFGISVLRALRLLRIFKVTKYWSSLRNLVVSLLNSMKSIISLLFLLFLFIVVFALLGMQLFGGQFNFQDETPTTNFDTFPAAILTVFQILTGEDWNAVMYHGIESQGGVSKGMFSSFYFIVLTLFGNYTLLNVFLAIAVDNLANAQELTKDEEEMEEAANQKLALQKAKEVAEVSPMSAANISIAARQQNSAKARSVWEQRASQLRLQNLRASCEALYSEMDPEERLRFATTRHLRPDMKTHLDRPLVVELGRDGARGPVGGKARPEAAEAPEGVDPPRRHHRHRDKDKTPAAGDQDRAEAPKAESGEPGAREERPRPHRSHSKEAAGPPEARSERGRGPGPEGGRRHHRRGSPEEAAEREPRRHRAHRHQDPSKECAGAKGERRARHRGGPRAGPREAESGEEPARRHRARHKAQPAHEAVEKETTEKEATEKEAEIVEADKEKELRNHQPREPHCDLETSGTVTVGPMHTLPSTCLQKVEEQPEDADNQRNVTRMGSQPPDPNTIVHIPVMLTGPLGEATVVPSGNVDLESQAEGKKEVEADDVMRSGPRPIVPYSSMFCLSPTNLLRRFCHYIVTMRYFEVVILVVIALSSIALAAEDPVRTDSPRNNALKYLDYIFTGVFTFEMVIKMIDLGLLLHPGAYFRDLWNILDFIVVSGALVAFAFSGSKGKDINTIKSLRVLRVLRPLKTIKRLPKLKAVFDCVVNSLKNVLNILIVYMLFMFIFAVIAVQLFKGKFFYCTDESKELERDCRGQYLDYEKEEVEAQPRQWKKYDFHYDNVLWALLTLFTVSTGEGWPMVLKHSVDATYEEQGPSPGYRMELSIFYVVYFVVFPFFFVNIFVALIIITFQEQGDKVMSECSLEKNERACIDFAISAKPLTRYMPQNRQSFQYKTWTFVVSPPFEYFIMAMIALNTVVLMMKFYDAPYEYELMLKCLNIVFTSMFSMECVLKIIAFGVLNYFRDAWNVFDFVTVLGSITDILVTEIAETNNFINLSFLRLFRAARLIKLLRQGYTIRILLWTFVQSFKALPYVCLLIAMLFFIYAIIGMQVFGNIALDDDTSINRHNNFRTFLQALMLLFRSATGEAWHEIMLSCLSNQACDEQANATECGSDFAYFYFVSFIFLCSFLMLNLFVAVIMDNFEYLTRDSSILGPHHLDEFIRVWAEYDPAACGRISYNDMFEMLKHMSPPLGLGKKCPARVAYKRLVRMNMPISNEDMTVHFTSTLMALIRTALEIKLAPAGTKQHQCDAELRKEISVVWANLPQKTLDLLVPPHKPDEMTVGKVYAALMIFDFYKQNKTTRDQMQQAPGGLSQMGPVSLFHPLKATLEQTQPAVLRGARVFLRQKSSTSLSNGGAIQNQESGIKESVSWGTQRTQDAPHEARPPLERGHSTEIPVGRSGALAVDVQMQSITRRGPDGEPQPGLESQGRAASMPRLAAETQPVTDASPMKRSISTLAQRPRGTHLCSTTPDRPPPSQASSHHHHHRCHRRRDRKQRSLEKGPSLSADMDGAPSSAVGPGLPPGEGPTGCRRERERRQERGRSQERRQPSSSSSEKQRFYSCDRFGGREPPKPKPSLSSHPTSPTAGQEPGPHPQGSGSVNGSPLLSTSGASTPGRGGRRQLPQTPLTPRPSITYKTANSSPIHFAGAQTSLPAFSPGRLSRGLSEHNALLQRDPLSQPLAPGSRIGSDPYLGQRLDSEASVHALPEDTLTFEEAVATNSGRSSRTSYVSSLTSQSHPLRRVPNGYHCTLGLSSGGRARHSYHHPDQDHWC
Assay summary: Fluorescent assay for Cav2.2 channels using potassium depolarization (Assay Example 1)
Setup conditions: pre-incubation potassium concentration not stated
Examples of compounds with documented IC50 follow.
Experimental endpoint: IC50

>>> result("CC(C)([C@H]1CCN(c2ccc(C(F)(F)F)cn2)C(=O)C1)S(=O)(=O)c1cccc(C(F)(F)F)c1")
"0.64 µM"
>>> result("CC(C)(C1CCN(Cc2ccc(F)cc2)C(=O)C1)S(=O)(=O)c1cccc(C(F)(F)F)c1 (stereo not drawn)")
"0.22 µM"
>>> result("CC(C)(C1CC(=O)N(c2ccc(C(F)(F)F)cc2)C1)S(=O)(=O)c1cccc(C(F)(F)F)c1 (stereo not drawn)")
"0.79 µM"
>>> result("CC(C)([C@@H]1CCN(c2ccc(C(F)(F)F)cn2)C(=O)C1)S(=O)(=O)c1cccc(C(F)(F)F)c1")
"0.28 µM"
>>> result("CC(C)(C1CCC(=O)N(Cc2ccc(Cl)cc2)C1)S(=O)(=O)c1cccc(C(F)(F)F)c1 (stereo not drawn)")
"0.89 µM"
>>> result("CC(C)(C1CCN(c2ccccc2)C(=O)C1)S(=O)(=O)c1cccc(C(F)(F)F)c1 (stereo not drawn)")
"0.36 µM"
